# target-under-test: LXRα (Homo sapiens, UniProt Q13133)
# Construct: CMX-GAL4N-hLXRα-LBD; expressed in transfected cells; host or cells: HEK293
# Sequence (Q13133 209-447 limits assumed): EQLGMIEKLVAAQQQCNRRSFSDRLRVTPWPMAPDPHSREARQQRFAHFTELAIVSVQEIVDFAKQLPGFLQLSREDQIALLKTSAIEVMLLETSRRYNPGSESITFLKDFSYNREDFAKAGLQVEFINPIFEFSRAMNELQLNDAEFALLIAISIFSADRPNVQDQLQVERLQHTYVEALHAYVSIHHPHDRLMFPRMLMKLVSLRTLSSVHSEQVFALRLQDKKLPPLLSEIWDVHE
# test-details: LXRα reporter gene assay in HEK293
# Format: cell-based
# experimental-setup: read-out: LXRα antagonistic activity (IC50)
reported-property: IC50 (µM)

O=c1[nH]c2ccc(C(O)(C(F)(F)F)C(F)(F)F)cc2c2cc(F)ccc12 [Compound 35] = 6.4
CCCCn1c(=O)c2ccc(O)cc2c2cc(C(O)(C(F)(F)F)C(F)(F)F)ccc21 [Compound 38] = 7
O=c1[nH]c2ccc(C(O)(C(F)(F)F)C(F)(F)F)cc2c2ccc(F)cc12 [Compound 34] = 7.9

----------
# target-under-test: GR (Homo sapiens, UniProt P04150)
# Sequence (P04150 whole entry): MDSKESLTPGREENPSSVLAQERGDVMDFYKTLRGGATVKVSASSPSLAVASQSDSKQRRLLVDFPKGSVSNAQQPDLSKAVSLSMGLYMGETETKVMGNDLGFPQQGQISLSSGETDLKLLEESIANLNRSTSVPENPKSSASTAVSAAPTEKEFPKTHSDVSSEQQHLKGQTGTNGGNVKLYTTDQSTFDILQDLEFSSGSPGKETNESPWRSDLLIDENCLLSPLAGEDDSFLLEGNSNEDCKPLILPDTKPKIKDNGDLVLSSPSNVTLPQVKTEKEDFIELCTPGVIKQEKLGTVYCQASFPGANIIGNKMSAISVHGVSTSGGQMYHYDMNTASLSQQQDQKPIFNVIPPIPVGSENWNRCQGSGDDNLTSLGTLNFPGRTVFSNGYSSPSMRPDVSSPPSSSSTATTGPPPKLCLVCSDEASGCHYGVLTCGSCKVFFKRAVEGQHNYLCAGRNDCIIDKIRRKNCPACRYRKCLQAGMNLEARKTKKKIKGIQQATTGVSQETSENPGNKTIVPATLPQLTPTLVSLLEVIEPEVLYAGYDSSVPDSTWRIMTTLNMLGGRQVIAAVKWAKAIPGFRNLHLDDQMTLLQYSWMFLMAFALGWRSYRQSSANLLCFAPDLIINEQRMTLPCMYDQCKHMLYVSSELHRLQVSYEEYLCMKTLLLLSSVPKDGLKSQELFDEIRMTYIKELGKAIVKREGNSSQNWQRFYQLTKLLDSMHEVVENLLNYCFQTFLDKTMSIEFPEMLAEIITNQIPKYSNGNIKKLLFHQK
# test-details: GR reporter gene assay in HEK293
# experimental-setup: reporter gene assay, HEK293; agonist dexamethasone 1 nM; read-out: GR antagonistic activity (IC50)
reported-property: IC50 (µM)

CCCCn1c(=O)c2cc(OC)ccc2c2cc(C(O)(C(F)(F)F)C(F)(F)F)ccc21 = 8.2

(P) CCCCn1c(=O)c2c(OC)c(OC)ccc2c2cc(C(O)(C(F)(F)F)C(F)(F)F)ccc21
(Q) CCCCn1c(=O)c2ccccc2c2cc(CC)ccc21
Identify the item whose IC50 is the smaller number: P or Q Please indicate the selected item by its label.
P

----------
# target-under-test: RORγ (Homo sapiens)
# Construct: expressed in transfected cells; host or cells: HEK293
# Sequence (P51449 whole entry): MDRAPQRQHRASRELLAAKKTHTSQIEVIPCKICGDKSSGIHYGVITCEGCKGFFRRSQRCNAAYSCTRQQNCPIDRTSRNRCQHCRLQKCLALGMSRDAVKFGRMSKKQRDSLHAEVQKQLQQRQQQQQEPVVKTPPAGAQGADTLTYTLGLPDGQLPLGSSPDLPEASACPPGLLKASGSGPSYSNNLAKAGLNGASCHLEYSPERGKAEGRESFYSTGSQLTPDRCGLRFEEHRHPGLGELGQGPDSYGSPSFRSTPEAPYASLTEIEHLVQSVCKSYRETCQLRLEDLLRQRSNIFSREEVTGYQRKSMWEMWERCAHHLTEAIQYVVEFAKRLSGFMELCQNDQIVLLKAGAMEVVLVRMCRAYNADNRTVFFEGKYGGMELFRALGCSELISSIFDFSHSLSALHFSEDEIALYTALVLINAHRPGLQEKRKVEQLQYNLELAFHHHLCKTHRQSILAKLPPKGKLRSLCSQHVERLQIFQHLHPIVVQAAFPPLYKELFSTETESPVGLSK
# test-details: RORγ inverse agonist reporter gene assay in HEK293
# Assay type: cell-based
# experimental-setup: new compound 43, read-out: RORγ inverse agonistic activity (IC50)
reported-property: IC50

Please give measured IC50 of the following entry: O=c1[nH]c2c(Cl)cc(C(O)(C(F)(F)F)C(F)(F)F)cc2c2ccccc12 [Compound 43]
> 20 µM

----------
# target-under-test: GR (Homo sapiens)
# test-details: GR reporter gene assay in HEK293
# experimental-setup: reporter gene assay, HEK293; agonist dexamethasone 1 nM; read-out: GR antagonistic activity (IC50)
reported-property: IC50 (µM)
Write the number in µM without appending the unit.

Supply IC50 measured with GR (Homo sapiens) for CCCCn1c(=O)c2ccccc2c2cc(C(O)(C(F)(F)F)C(F)(F)F)c(OC)cc21 .
1.3

Report IC50 from GR (Homo sapiens) testing of CCCCn1c(=O)c2ccccc2c2cc(C(O)(C(F)(F)F)C(F)(F)F)ccc21
7.4

----------
# Test system: LNCaP cells (T877A mutation in the AR LBD)
# test-details: PSA level (ELISA) in LNCaP cell line
# Assay type: cell-based, human
# experimental-setup: Homo sapiens, LNCaP, dihydrotestosterone 10 nM, 48 h, ± SEM
# From the text: Chronic administration of AR antagonists often leads to the development of resistance. […] In contrast, another AR antagonist, enzalutamide, was reported to antagonize AR mutant T877A [23]. Thus, development of a novel chemical class of AR antagonists, different from flutamide analogs seems an attractive approach for the treatment of AR antagonist-resistant cancer, providing further motivation to evaluate steroid surrogates. […]
pIC50: −log10 of the molar value.
reported-property: pIC50

O=c1[nH]c2ccc(C(O)(C(F)(F)F)C(F)(F)F)cc2c2cc(F)ccc12 [Compound 35] = 6.26
O=c1[nH]c2c(F)cc(C(O)(C(F)(F)F)C(F)(F)F)cc2c2ccccc12 [Compound 32] = 6.31

(I) CCCCn1c(=O)c2ccccc2c2cc(C(O)(C(F)(F)F)C(F)(F)F)c3c(c21)OCO3 [Compound 26]
(II) O=c1[nH]c2ccc(C(O)(C(F)(F)F)C(F)(F)F)cc2c2cccc(F)c12 [Compound 33]
# compare pIC50 for I vs II ; return the one with the smaller value Lab note: record the label of whichever item you select.
I
